- Run Description: Binding affinity against Sigma receptor type 1 was determined by the displacement of [3H]pentazocine radioligand
pKi: −log10 of the molar value.
Think of 7 as a floor: if pKi stands on it or above, it is criterion met; beneath it, criterion not met.

{"Compound String": "CCN(CC)CCOCCOC(=O)C1(c2ccccc2)CCCC1", "Category": "criterion met"}
{"Compound String": "Fc1ccc(N(CCCN2CCNCC2)c2ccc(F)cc2)cc1", "Category": "criterion not met"}
{"Compound String": "C[C@@H]1CN(CCCN(c2ccccc2)c2ccccc2)C[C@@H](C)N1CCc1ccc(Cl)c(Cl)c1", "Category": "criterion met"}
{"Compound String": "C[C@@H]1CN(CCCN(c2ccc(F)cc2)c2ccc(F)cc2)C[C@@H](C)N1CCCc1ccccc1", "Category": "criterion met"}
{"Compound String": "C[C@@H]1CN(CCCn2c3ccc(Br)cc3c3cc(Br)ccc32)C[C@@H](C)N1", "Category": "criterion not met"}
{"Compound String": "C[C@@H]1CN(CCCn2c3ccccc3c3cc([N+](=O)[O-])ccc32)C[C@@H](C)N1", "Category": "criterion not met"}
{"Compound String": "C[C@@H]1CN(CCCn2c3ccccc3c3ccccc32)C[C@@H](C)N1C", "Category": "criterion not met"}
{"Compound String": "Fc1ccc(N(CCCN2CCN(Cc3ccccc3)CC2)c2ccc(F)cc2)cc1", "Category": "criterion met"}
{"Compound String": "C[C@@H]1CN(CCCn2c3ccccc3c3cc(N)ccc32)C[C@@H](C)N1", "Category": "criterion not met"}
{"Compound String": "C[C@@H]1CN(CCCN(c2ccc(F)cc2)c2ccc(F)cc2)C[C@@H](C)N1CCc1ccc(Cl)c(Cl)c1", "Category": "criterion met"}
